# target.entity: HLA-DRB1*0401 (human)
# procedure.text: competition binding
# test.conditions: modification not given
In this section we review reported IC50 values for a set of binders.
property.label: IC50 (µM)

INSERT INTO measurements (binder, property_label, comparison_operator, val) VALUES
  ('RRYLENGKETLQRTD [p36]', 'IC50', '=', 28),
  ('YAYDGKDYIALKEDL [p24]', 'IC50', '=', 3.87),
  ('HSMRYFFTSVSRPGR [p1*]', 'IC50', '=', 0.013),
  ('EQLRAYLEGTCVEWL [p32]', 'IC50', '=', 1.73),
  ('AEITLTWQRDGEDQT [p42]', 'IC50', '>', 100),
  ('VDLGTLRGYYNQSEA [p14*]', 'IC50', '=', 8.83),
  ('ETLQRTDAPKTHMTH [p37]', 'IC50', '=', 60),
  ('TELVETRPAGDGTFQ [p44]', 'IC50', '=', 70.4),
  ('FQKWAAVVVPSGQEQR [p46*]', 'IC50', '=', 0.326),
  ('TSVSRPGRGEPRFIA [p3]', 'IC50', '=', 5.48),
  ('IPIVGIIAGLVLFGA [p53*]', 'IC50', '>', 100),
  ('GTLRGYYNQSEAGSH [p15*]', 'IC50', '=', 1.82),
  ('TCVEWLRRYLENGKE [p34*]', 'IC50', '>', 100),
  ('RAYLEGTCVEWLRRY [p33]', 'IC50', '=', 9.17),
  ('HTVQRMYGCDVGSDW [p17*]', 'IC50', '=', 2.12),
  ('EQRYTCHVQHEGLPKP [p48]', 'IC50', '=', 57.4);
